testedTarget: PI3K γ (p110γ) (Homo sapiens, UniProt P48736)
Construct: purchased Upstate / Millipore Corporation
Sequence (P48736 whole entry): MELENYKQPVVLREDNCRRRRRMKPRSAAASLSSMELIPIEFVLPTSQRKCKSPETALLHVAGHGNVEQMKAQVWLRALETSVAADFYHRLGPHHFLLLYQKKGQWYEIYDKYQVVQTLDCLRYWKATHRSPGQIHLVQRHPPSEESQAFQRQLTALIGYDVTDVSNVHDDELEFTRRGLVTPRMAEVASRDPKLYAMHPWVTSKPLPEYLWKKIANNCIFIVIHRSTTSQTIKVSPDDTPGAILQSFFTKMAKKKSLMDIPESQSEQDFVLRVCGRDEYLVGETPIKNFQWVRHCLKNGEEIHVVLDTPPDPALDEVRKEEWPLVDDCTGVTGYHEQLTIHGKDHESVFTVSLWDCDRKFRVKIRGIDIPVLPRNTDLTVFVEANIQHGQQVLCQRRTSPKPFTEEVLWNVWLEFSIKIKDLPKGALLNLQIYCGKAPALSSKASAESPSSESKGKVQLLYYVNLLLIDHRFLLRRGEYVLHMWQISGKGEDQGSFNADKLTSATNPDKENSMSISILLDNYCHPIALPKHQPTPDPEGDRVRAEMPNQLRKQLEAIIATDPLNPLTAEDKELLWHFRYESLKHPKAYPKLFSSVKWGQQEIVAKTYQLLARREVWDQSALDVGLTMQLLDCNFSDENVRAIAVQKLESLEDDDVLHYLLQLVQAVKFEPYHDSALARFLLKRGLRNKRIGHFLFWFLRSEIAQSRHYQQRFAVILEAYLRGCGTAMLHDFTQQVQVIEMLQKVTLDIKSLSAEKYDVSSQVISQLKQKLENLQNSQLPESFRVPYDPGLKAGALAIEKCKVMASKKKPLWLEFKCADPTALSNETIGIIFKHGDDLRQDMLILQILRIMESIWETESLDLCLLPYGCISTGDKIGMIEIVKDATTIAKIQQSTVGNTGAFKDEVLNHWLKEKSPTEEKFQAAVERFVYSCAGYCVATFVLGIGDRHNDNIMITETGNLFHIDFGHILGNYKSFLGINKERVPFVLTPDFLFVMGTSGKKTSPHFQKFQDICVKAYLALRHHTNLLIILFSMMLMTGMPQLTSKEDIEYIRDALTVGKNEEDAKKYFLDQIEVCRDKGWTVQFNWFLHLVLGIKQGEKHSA
assaySummary: PI 3-Kinase (human) HTRF assay, PI3K γ
Type: biochemical
settings: read-out: PI3K γ IC50
reportedMetric: IC50

Example molecules with recorded IC50:
INSERT INTO measurements (molecule, reportedmetric, result) VALUES
  ('CC(C)N1CCN(c2cnc3ccc(-c4ccc5oc(N)nc5c4)cc3n2)CC1 [Compound 84]', 'IC50', '< 100 nM'),
  ('Nc1nc2cc(-c3ccc4ncc(N5CCOCC5)nc4c3)ccc2s1 [Compound 116]', 'IC50', '< 1000 nM'),
  ('Nc1nc2cc(-c3ccc4ncc(C(=O)N5CCOCC5)n4c3)cc(Cl)c2o1 [Compound 359]', 'IC50', '< 100 nM'),
  ('Nc1nc2cc(-c3ccc4ncn(C5CC5)c(=O)c4c3)ccc2o1 [Compound 254]', 'IC50', '< 1000 nM');

Qu. Could you share what IC50 was measured for Nc1nc2cc(-c3ccc4ncnc(NC5CCN(C(=O)C6CC6)CC5)c4c3)ccc2o1 [Compound 89] , tested on PI3K γ (p110γ) (Homo sapiens, UniProt P48736)?
Ans. < 100 nM

----------
System: T47D
assaySummary: T47D proliferation
Type: cell-based
settings: Homo sapiens; T47D cell line
reportedMetric: IC50

Example compounds with recorded IC50:
INSERT INTO assay_data (compound, testedtarget, result) VALUES
  ('Nc1nc2cc(-c3ccc4ncc(C(=O)N5CCOCC5)n4c3)ccc2o1', 'T47D', '< 10 µM'),
  ('CN1CCC(N(C)c2cnc3ccc(-c4ccc5oc(N)nc5c4)cc3n2)CC1', 'T47D', '< 10 µM'),
  ('Nc1nc2cc(-c3ccc4ncc(N5CCCCC5)nc4c3)ccc2o1', 'T47D', '> 10 µM'),
  ('CN1CC(C(=O)N2CCC(Nc3ncnc4ccc(-c5ccc6oc(N)nc6c5)cc34)CC2)C1', 'T47D', '> 10 µM'),
  ('CC1CN(c2cnc3ccc(-c4ccc5oc(N)nc5c4)cc3n2)CCN1 (centres unmarked)', 'T47D', '> 10 µM'),
  ('Nc1noc2cc(-c3ccc4nccc(-c5ccncc5)c4c3)ccc12', 'T47D', '< 1 µM');

Qu. # get_value(readout='IC50', item= CN1CCC(n2cnc3ccc(-c4ccc5oc(N)nc5c4)cc3c2=O)CC1 )
Ans. < 10 µM

Qu. # get_value(readout='IC50', item= Nc1nc2cc(-c3ccc4ncc(C(=O)Nc5cccnc5)n4c3)ccc2o1 )
Ans. > 10 µM

----------
testedTarget: PI3K δ (Homo sapiens)
Construct: purchased Upstate / Millipore Corporation
Sequence (O00329 whole entry): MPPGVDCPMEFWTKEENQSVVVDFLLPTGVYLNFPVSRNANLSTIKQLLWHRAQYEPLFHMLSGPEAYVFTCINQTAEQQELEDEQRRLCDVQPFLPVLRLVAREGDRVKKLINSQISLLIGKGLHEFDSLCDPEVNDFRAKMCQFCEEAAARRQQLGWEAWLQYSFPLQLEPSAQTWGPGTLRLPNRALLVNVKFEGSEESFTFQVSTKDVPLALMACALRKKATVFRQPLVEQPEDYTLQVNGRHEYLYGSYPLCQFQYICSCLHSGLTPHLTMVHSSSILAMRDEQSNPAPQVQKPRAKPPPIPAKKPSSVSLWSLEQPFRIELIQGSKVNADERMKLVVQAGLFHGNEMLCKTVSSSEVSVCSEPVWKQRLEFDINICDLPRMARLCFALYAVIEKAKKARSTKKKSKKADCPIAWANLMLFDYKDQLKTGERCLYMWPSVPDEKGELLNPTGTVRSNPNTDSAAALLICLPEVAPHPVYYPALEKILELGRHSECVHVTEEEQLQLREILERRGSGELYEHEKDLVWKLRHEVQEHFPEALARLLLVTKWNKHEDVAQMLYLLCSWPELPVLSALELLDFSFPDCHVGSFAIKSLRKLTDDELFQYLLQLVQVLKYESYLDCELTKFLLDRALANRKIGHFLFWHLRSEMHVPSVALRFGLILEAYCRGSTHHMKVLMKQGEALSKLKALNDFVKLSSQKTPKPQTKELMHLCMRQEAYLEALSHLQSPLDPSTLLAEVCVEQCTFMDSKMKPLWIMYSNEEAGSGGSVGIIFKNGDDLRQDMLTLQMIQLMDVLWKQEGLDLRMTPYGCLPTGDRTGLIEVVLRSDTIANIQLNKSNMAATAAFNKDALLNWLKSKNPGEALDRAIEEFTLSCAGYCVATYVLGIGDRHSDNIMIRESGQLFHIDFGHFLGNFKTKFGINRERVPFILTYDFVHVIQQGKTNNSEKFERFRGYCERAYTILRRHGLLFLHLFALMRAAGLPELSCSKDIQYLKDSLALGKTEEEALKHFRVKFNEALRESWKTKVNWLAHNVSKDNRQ
Sequence (P27986 whole entry partner): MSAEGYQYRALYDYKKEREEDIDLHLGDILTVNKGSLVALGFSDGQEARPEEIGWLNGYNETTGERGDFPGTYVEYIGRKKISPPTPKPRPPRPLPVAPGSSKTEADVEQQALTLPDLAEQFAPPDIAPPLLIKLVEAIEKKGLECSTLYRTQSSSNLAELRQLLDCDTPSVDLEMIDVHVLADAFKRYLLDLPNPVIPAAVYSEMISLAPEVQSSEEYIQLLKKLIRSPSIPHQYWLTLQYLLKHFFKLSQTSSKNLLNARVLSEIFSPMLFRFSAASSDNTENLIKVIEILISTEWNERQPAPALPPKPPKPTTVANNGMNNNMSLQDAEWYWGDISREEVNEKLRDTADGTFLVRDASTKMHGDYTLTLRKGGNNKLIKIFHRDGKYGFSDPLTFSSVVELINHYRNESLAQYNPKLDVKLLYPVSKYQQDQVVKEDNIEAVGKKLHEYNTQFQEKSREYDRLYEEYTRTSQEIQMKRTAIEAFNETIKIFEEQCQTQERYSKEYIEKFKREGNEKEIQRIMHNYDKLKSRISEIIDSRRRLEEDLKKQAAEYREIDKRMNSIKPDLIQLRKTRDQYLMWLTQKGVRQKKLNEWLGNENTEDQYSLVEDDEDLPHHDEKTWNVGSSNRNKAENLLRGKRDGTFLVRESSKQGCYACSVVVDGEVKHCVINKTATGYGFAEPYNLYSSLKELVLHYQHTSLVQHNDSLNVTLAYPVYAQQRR
assaySummary: PI 3-Kinase (human) HTRF assay, PI3K δ
Assay type: biochemical
settings: Table 4 (PI3K α inhibitors); read-out: PI3K δ IC50
pIC50: −log10 of the molar value.
reportedMetric: pIC50

Example compounds with recorded pIC50:
INSERT INTO assay_data (compound, reportedmetric, result) VALUES
  ('CN1CCN(C2CN(c3cnc4ccc(-c5ccc6oc(N)nc6c5)nc4c3)C2)CC1=O [Compound 615]', 'pIC50', '> 6.00'),
  ('Nc1nc2cc(-c3ccc4ncc(-c5cccnc5)nc4n3)ccc2o1 [Compound 554]', 'pIC50', '< 5.00'),
  ('C[C@H](N)C(=O)N1CCN(c2cnc3ccc(-c4ccc5oc(N)nc5c4)nc3c2)CC1 [Compound 589]', 'pIC50', '> 6.00'),
  ('Nc1nc2cc(-c3cnc4ccc(N5CCOCC5)nc4c3)ccc2o1 [Compound 624]', 'pIC50', '< 5.00'),
  ('C[C@H]1COCCN1c1cnc2ccc(-c3ccc4oc(N)nc4c3)nc2n1 [Compound 566]', 'pIC50', '< 5.00'),
  ('CC(C)N1CCN(C2CN(c3cnc4ccc(-c5ccc6oc(N)nc6c5)nc4c3)C2)CC1 [Compound 623]', 'pIC50', '> 6.00'),
  ('C[C@H]1COCCN1C1CN(c2cnc3ccc(-c4ccc5oc(N)nc5c4)nc3c2)C1 [Compound 619]', 'pIC50', '< 5.00');

Turning now to a further compound:
Qu. # get_value(readout='pIC50', item= C[C@@H](N)C(=O)N1CCN(c2cnc3ccc(-c4ccc5oc(N)nc5c4)nc3c2)CC1 [Compound 590] )
Ans. > 6.00

----------
Documented pIC50 across a set of compounds
testedTarget: PI3K α (p110α/p85α) (Homo sapiens, UniProt P42336)
Construct: purchased Upstate / Millipore Corporation
Sequence (P42336 whole entry, one chain of several): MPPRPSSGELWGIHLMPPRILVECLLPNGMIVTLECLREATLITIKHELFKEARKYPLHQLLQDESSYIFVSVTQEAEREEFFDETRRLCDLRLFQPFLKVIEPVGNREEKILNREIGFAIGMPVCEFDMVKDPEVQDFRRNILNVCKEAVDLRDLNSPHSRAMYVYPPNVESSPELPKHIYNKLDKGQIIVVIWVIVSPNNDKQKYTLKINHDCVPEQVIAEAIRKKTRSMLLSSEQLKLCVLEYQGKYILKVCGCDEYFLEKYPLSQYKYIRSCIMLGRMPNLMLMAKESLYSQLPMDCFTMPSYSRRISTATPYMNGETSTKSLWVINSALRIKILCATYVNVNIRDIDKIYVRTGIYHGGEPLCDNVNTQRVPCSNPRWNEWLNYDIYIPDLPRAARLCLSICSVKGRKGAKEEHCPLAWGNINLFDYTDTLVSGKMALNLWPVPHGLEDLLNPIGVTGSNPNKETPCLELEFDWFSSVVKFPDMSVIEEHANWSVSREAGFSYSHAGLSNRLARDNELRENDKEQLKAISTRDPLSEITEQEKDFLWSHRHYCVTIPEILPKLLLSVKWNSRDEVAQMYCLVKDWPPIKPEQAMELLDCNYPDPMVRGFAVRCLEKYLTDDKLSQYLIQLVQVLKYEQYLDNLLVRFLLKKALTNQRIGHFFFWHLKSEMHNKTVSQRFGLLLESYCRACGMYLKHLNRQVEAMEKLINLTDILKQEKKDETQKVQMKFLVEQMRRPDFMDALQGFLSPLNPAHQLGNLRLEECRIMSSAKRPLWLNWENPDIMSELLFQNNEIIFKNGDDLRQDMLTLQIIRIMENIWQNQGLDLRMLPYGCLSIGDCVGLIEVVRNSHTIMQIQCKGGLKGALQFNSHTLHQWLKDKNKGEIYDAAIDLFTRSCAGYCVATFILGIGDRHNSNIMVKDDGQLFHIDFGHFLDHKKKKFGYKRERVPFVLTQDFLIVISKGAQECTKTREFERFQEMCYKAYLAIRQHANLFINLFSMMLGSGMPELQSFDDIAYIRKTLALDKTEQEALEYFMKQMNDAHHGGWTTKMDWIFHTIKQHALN
assaySummary: PI 3-Kinase (human) HTRF assay, PI3K α
Assay type: biochemical
settings: read-out: PI3K α IC50
pIC50: −log10 of the molar value.

INSERT INTO results (linenotation, result) VALUES
  ('Cn1c(N2CCOCC2)nc2cc(-c3ccc4oc(N)nc4c3)ccc2c1=O', '> 6.00'),
  ('CC(=O)Nc1ncc(-c2ccc3oc(N)nc3c2)s1', '> 5.00'),
  ('Nc1nc2cc(-c3ccc4ncc(C(=O)N5CC(N6CC[C@@H](O)C6)C5)n4c3)ccc2o1', '> 7.00'),
  ('COc1ncc(-c2ccc3ncc(C(=O)N4CCOCC4)n3c2)cc1NS(=O)(=O)c1cccnc1', '> 7.00'),
  ('O=C(c1cnc2ccc(-c3cccc(S(=O)(=O)Nc4cc(F)ccc4F)c3)cn12)N1CCOCC1', '< 5.00');

Turning now to a further compound:
Qu. # get_value(readout='pIC50', item= CC(=O)Nc1cn2cc(-c3ccc4nccc(-c5ccncc5)c4c3)ccc2n1 )
Ans. < 5.00

----------
testedTarget: PI3K γ (p110γ) (Homo sapiens, UniProt P48736)
Construct: purchased Upstate / Millipore Corporation
assaySummary: PI 3-Kinase (human) HTRF assay, PI3K γ
Assay type: biochemical
settings: read-out: PI3K γ IC50
pIC50: −log10 of the molar value.
reportedMetric: pIC50

INSERT INTO results (linenotation, testedtarget, result) VALUES
  ('Nc1nc2cc(-c3ccc4ncc(C(=O)NC5CC5)n4c3)ccc2o1', 'PI3K γ (p110γ) (Homo sapiens, UniProt P48736)', '> 7.00'),
  ('CN(C)CCn1cnc2ccc(-c3ccc4oc(N)nc4c3)cc2c1=O', 'PI3K γ (p110γ) (Homo sapiens, UniProt P48736)', '< 5.00'),
  ('CN1CCC(NC(=O)c2cnc3ccc(-c4ccc5oc(N)nc5c4)nn23)CC1', 'PI3K γ (p110γ) (Homo sapiens, UniProt P48736)', '> 7.00'),
  ('CN(CCN1CCOCC1)c1cnc2ccc(-c3ccc4oc(N)nc4c3)cc2n1', 'PI3K γ (p110γ) (Homo sapiens, UniProt P48736)', '> 5.00'),
  ('Nc1nc2cc(-c3ccc4ncc(N5CC(n6cccn6)C5)nc4c3)ccc2o1', 'PI3K γ (p110γ) (Homo sapiens, UniProt P48736)', '> 6.00');

Turning now to a further compound:
Qu. # get_value(readout='pIC50', item= COc1ncc(-c2ccc3ncc(C(=O)N4CCOCC4)n3c2)cc1NS(=O)(=O)c1ccccc1 )
Ans. > 6.00

----------
Documented IC50 across a set of compounds
testedTarget: PI3K β (p110β/p85α) (Homo sapiens, UniProt P42338)
Construct: purchased Upstate / Millipore Corporation
Sequence (P42338 whole entry): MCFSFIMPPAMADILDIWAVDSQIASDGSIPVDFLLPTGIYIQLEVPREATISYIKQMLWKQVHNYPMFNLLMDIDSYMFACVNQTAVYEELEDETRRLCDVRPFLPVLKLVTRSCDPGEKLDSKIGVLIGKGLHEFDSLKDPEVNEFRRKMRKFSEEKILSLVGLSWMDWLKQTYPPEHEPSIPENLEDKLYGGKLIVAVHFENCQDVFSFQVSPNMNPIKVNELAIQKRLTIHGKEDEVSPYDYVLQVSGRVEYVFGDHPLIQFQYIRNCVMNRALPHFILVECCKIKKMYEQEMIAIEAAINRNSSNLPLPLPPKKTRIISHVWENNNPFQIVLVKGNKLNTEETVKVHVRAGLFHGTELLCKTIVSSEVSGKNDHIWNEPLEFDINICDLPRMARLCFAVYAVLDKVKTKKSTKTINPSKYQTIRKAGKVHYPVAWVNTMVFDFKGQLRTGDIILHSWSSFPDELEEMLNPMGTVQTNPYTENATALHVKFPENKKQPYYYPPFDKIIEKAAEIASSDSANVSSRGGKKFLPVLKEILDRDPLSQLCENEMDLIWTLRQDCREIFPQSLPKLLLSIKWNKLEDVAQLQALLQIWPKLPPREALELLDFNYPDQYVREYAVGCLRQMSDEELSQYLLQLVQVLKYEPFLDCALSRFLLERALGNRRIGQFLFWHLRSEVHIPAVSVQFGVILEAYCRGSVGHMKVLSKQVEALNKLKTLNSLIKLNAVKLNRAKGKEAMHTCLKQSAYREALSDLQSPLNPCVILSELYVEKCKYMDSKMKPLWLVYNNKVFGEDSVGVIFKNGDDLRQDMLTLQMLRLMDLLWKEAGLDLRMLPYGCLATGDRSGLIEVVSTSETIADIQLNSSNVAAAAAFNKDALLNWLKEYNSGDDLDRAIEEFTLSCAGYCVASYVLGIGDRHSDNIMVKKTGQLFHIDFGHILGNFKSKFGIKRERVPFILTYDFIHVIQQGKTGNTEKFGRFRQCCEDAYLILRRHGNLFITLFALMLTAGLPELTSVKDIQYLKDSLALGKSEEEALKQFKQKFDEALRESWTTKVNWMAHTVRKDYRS
Sequence (P27986 whole entry partner): as the sequence (P27986 whole entry partner) above
assaySummary: PI 3-Kinase (human) HTRF assay, PI3K β
Assay type: biochemical
settings: read-out: PI3K β IC50

INSERT INTO assay_data (compound, result) VALUES
  ('Nc1nc2cc(-c3ccc4ncc(N5CC[C@H](O)C5)nc4c3)ccc2o1', '< 1 µM'),
  ('Nc1nc2cc(-c3ccc4ncc(N5CC(n6ccnc6)C5)nc4c3)ccc2o1', '< 1 µM'),
  ('Nc1nc2cccc(-c3ccc4ncc(C(=O)N5CCOCC5)n4c3)c2o1', '> 10 µM');

Qu. Could you share what IC50 was measured for COCCN1CCN(c2cnc3ccc(-c4ccc5oc(N)nc5c4)cc3n2)CC1 , tested on PI3K β (p110β/p85α) (Homo sapiens, UniProt P42338)?
Ans. < 1 µM

Qu. Could you share what IC50 was measured for CC(Oc1nc(-c2ccc3ncc(C(=O)N4CCOCC4)n3c2)cnc1N)C(F)(F)F (centres unmarked) , tested on PI3K β (p110β/p85α) (Homo sapiens, UniProt P42338)?
Ans. < 10 µM

Qu. Could you share what IC50 was measured for Nc1nc2cc(-c3ccc4ncc(C(=O)N5CCC(F)CC5)n4c3)ccc2o1 , tested on PI3K β (p110β/p85α) (Homo sapiens, UniProt P42338)?
Ans. > 10 µM

Qu. Could you share what IC50 was measured for Nc1nc2cc(-c3ccc4ncc(C(=O)N5CC(O)C5)n4c3)ccc2o1 , tested on PI3K β (p110β/p85α) (Homo sapiens, UniProt P42338)?
Ans. < 10 µM

Qu. Could you share what IC50 was measured for Cn1c(N2CCOCC2)nc2cc(-c3ccc4oc(N)nc4c3)ccc2c1=O , tested on PI3K β (p110β/p85α) (Homo sapiens, UniProt P42338)?
Ans. > 10 µM

Qu. Could you share what IC50 was measured for Nc1nc2cc(-c3ccc4ncc(N5CC[C@@H](N6CCOCC6)C5)nc4c3)ccc2o1 , tested on PI3K β (p110β/p85α) (Homo sapiens, UniProt P42338)?
Ans. < 10 µM

Qu. Could you share what IC50 was measured for Nc1nc2cc(-c3ccc4ncc(C(=O)N5CCC5)n4c3)ccc2o1 , tested on PI3K β (p110β/p85α) (Homo sapiens, UniProt P42338)?
Ans. < 10 µM

Qu. Could you share what IC50 was measured for CN1CCC(n2cnc3ccc(-c4cnc(Cl)c(NS(=O)(=O)c5ccccc5)c4)cc3c2=O)CC1 , tested on PI3K β (p110β/p85α) (Homo sapiens, UniProt P42338)?
Ans. < 0.1 µM

Qu. Could you share what IC50 was measured for COC1CN(C(=O)c2cnc3ccc(-c4ccc5oc(N)nc5c4)cn23)C1 , tested on PI3K β (p110β/p85α) (Homo sapiens, UniProt P42338)?
Ans. < 10 µM

Qu. Could you share what IC50 was measured for CC(C)(C)N1CCN(c2cnc3ccc(-c4ccc5oc(N)nc5c4)cc3n2)CC1 , tested on PI3K β (p110β/p85α) (Homo sapiens, UniProt P42338)?
Ans. < 1 µM

Qu. Could you share what IC50 was measured for Nc1nc2cc(-c3ccc4nc(N)c(N5CC(N6CCOCC6)C5)nc4c3)ccc2o1 , tested on PI3K β (p110β/p85α) (Homo sapiens, UniProt P42338)?
Ans. > 10 µM

Qu. Could you share what IC50 was measured for Nc1nc2cc(-c3ccn4ncc(C(=O)N5CCOCC5)c4c3)ccc2o1 , tested on PI3K β (p110β/p85α) (Homo sapiens, UniProt P42338)?
Ans. < 10 µM

Qu. Could you share what IC50 was measured for Nc1nc2cc(-c3ccc4nc(N)sc4c3)ccc2o1 , tested on PI3K β (p110β/p85α) (Homo sapiens, UniProt P42338)?
Ans. < 1 µM

Qu. Could you share what IC50 was measured for Nc1nc2ccc(-c3ccc4nnc(-c5ccncc5)n4c3)cc2o1 , tested on PI3K β (p110β/p85α) (Homo sapiens, UniProt P42338)?
Ans. < 1 µM
